Tested on: Wolbachia pipientis
test: Anti-Wolbachia Cell-Based Screen
Assay type: functional
Set-up: scale not given: in the data most compounds retested in dose-response had high values
measurement-context: 5 µM
About 13,000 (27%) of roughly 48,000 compounds showed an effect of 50% or more. Some of the results follow.
Mark each entry satisfied if its Percent Effect sits below 10%, and not satisfied for all others.

Please review the following examples before continuing.
1. CN(Cc1cncnc1)[C@@H]1CN(C(=O)c2ccco2)[C@@H]2CCCO[C@H]12.O=C(O)C(F)(F)F ... not satisfied
2. COc1ccc(C2CCCCCN2Cc2nnc(C)o2)cc1 (stereo not drawn) ... satisfied
3. Cc1ccc(CCNc2ncnc3sc4c(c23)CCNC4)o1 ... satisfied
4. CCN(CC)[C@@H]1CN(C(=O)c2ccc(C#N)cc2)[C@@H]2CCCO[C@H]12.O=C(O)C(F)(F)F ... satisfied

Ask: Does the reported Percent Effect of COCCN(Cc1ccccn1)C(=O)CC1OCCc2ccccc21 (stereo not drawn) stay below 10%?
Reply: satisfied

Ask: Lab log: compare recorded Percent Effect with 10%; is it strictly lower for Cc1cnc(C(=O)N2C[C@H]3CN(Cc4nccs4)C[C@H]3C2)cn1 ?
Reply: not satisfied

Ask: Is Percent Effect of Cc1cc(C)n(Cc2cc(C(=O)N3CCCC3c3nccs3)n[nH]2)n1 (stereo not drawn) strictly below 10%?
Reply: not satisfied

Ask: Is it true that Percent Effect reported for Cc1cnc(C(=O)N2C[C@@H]3[C@@H](C2)OCC(=O)N3CC2CCCC2)cn1 is less than 10%?
Reply: satisfied

Ask: Threshold test, Percent Effect < 10%: CCC(C)(C)NC(=O)CN(Cc1cccc(O)c1)C1CCC(O)CC1 (stereo not drawn)
Reply: satisfied
